inhibition of SARS-CoV-2 cytopathic effect values, listed per item
Test system: Vero E6 infected with SARS-CoV-2
Experiment: inhibition of SARS-CoV-2 cytopathic effect; higher = more antiviral protection, active = above 15
Conditions: 10000 nM; 48 h
property: inhibition of SARS-CoV-2 cytopathic effect (%)

O=c1[nH]c(=O)n([C@H]2C[C@H](O)[C@@H](CO)O2)cc1C(F)(F)F = -1.77
C=CCc1cccc(/C=N/NC(=O)CN2CCN(Cc3ccccc3)CC2)c1O = -2.23
COc1ccc2nc3[nH]nc(C)c3c(NCCOCCO)c2c1 = -2.9
COC(=O)[C@H](Cc1ccccc1)NC(=O)[C@@H](N)CC(=O)O = 0.85
CCC1NC(=O)c2cc(S(N)(=O)=O)c(Cl)cc2N1 (stereo not drawn) = -5.16
O=C(c1ccc(Nc2nccc(-c3cc4ccccc4s3)n2)cc1)N1CCC(N2CCCC2)CC1 = -18.6
CCCCCCCCCCCCCCCC[n+]1ccn(Cc2ccccc2)c1C = -20.9
c1ccc(N2CCN(CCCOc3ccc4c(c3)OCO4)CC2)cc1 = -4.64
CC(=O)c1ccc(NS(C)(=O)=O)c(Oc2ccc(F)cc2F)c1 = 2.13
C=C[C@H]1CN2CC[C@H]1C[C@H]2[C@H](O)c1ccnc2ccccc12 = 2.49
CC(=O)[C@]1(O)Cc2c(O)c3c(c(O)c2[C@@H](O[C@H]2C[C@H](N)[C@H](O)[C@H](C)O2)C1)C(=O)c1ccccc1C3=O = -6.65
CNC(=O)c1ccc2cc([C@@]3(O)CCn4cncc43)ccc2c1 = 2.53
CCC(CO)(C(=O)OC1CC2CCC(C1)[N+]2(C)C)c1ccccc1 (stereo not drawn) = 2.53
Oc1ccc2c3c1O[C@H]1c4c(c5ccccc5n4Cc4ccccc4)C[C@@]4(O)[C@@H](C2)N(CC2CC2)CC[C@]314 = 34
N=C(N)NC(=N)NCCc1ccccc1 = -5.63
C[C@H](Cc1ccc(OCC(=O)O)cc1)NC[C@H](O)c1cccc(Cl)c1 = 0.72
O=C(O)Cn1c2c(c3cc(F)ccc31)CN(C(=O)c1cccc3ccccc13)CC2 = -0.76
CC(=O)O[C@]1(C(C)=O)CC[C@H]2[C@@H]3C=C(Cl)C4=CC(=O)CC[C@]4(C)[C@H]3CC[C@@]21C [chlormadinone-acetate] = -13

====

System: Vero E6 infected with SARS-CoV-2
Assay: inhibition of SARS-CoV-2 cytopathic effect; higher = more antiviral protection, active = above 15
Settings: 10000 nM; 48 h
property: inhibition of SARS-CoV-2 cytopathic effect (%)

O=c1cc(-c2ccccc2)oc2cc(O)c(O)c(O)c12 = -5.11
CN[C@@H]1[C@H](O[C@H]2[C@H](O[C@H]3[C@H](O)[C@@H](O)[C@H](NC(=N)N)[C@@H](O)[C@@H]3NC(=N)N)O[C@@H](C)[C@]2(O)CO)O[C@@H](CO)[C@H](O)[C@H]1O [dihydrostreptomycin] = -0.41
CCC(CC)Nc1nc(C)c(-c2ccc(OC(F)(F)F)cc2OC)nc1OC = -0.01
COC(=O)/C=C/C(=O)N[C@@H]1CC[C@@]2(O)[C@H]3Cc4ccc(O)c5c4[C@@]2(CCN3CC2CC2)[C@H]1O5 = 6.01
Cc1ncc(C[n+]2csc(CCO)c2C)c(N)n1 = 0.13
Cc1[nH]c(=O)c(C#N)cc1-c1ccncc1 = 0.27
CN1CCc2cc3c(cc2[C@H]1[C@@H]1OC(=O)c2c1ccc1c2OCO1)OCO3 [bicuculline-(+)] = 0.5
NC(=O)N1c2ccccc2CC(=O)c2ccccc21 [oxcarbazepine] = 4.57

====

inhibition of SARS-CoV-2 cytopathic effect values, listed per item
System: Vero E6 infected with SARS-CoV-2
Experiment: inhibition of SARS-CoV-2 cytopathic effect; higher = more antiviral protection, active = above 15
Conditions: 833.33 nM; 48 h
property: inhibition of SARS-CoV-2 cytopathic effect (%)

CCCCOc1ccc(CC(=O)NO)cc1 = 0
COc1ccc(/C=C2\CCCN=C2c2cccnc2)c(OC)c1 = 1.08
O=C[C@H](F)[C@@H](O)[C@@H](O)[C@H](O)CO = 1.15
O=C1NCCc2[nH]c(-c3ccncc3)cc21 = -0.56
Cc1[nH]c2ccccc2c1CCNCc1ccc(/C=C/C(=O)NO)cc1 = -13.3

====

inhibition of SARS-CoV-2 cytopathic effect values, listed per item
System: Vero E6 infected with SARS-CoV-2
Test: inhibition of SARS-CoV-2 cytopathic effect; higher = more antiviral protection, active = above 15
Conditions: 833.33 nM; 48 h
property: inhibition of SARS-CoV-2 cytopathic effect (%)

O=[N+]([O-])c1ncc[nH]1 = 2.21
O=C(O)c1ccccc1S = -2.81
CNC(=O)c1cc(Oc2ccc(NC(=O)Nc3ccc(Cl)c(C(F)(F)F)c3)cc2)ccn1 = 2.85
C[C@H]1N=C(N(C)C)N=C(N)N1 = 0.43
CCCCNC(=O)NS(=O)(=O)c1ccc(C)cc1 [tolbutamide] = 0.89
O=c1[nH]c2ccccc2c(=O)n1CCCN1CCN(c2ccccc2)CC1 = 1.18
CO[C@@H]1[C@@H](OC(N)=O)[C@@H](O)[C@H](Oc2ccc3c(O)c(NC(=O)c4ccc(O)c(CC=C(C)C)c4)c(=O)oc3c2C)OC1(C)C = 0.52
CCc1cnc(N2CCC(c3nc(COc4ccc(-n5cnnn5)cc4)cs3)CC2)nc1 = -3.29
CCN1/C(=C/C(C)=O)Sc2ccc(OC)cc21 = 0.11
O=C(CO)[C@@H](O)[C@@H](O)[C@H](O)CO = -0.41
CCOc1ccccc1C(N)=O [ethenzamide] = 2.62
CN1[C@@H]2CC[C@H]1C[C@@H](OC(=O)C(CO)c1ccccc1)C2 (stereo partly drawn) = 0.7
Fc1ccc(-n2cc(CCCCN3CCC4(CC3)OCc3ccccc34)c3ccccc32)cc1 = 4.24
O=C(NC1CCN(CCCCC2(C(=O)NCC(F)(F)F)c3ccccc3-c3ccccc32)CC1)c1ccccc1-c1ccc(C(F)(F)F)cc1 [lomitapide] = -1.45
O=C(O)CN1C(=O)c2cccc3cccc(c23)C1=O = 4.81
CN1CCN(c2ccc3ccccc3n2)CC1 = -1.31
O=C1CN2Cc3c(ccc(Cl)c3Cl)N=C2N1 [anagrelide] = -0.35
CC(C)(C(=O)O)c1ccc(C(O)CCCN2CCC(C(O)(c3ccccc3)c3ccccc3)CC2)cc1 (stereo not drawn) [fexofenadine] = 1.17
CC(C)(N)Cc1ccccc1 = 3.73
Clc1ccc(N/N=C(\c2ccccc2)c2ccccn2)nc1 = 9.6
Cc1cc2nc3c(=O)[nH]c(=O)nc-3n(C[C@H](O)[C@H](O)[C@H](O)COP(=O)(O)O)c2cc1C [riboflavin-5-phosphate-sodium] = 1.47
C[N+]1(C)CCC(OC(=O)C(O)(c2ccccc2)C2CCCC2)C1 (stereo not drawn) [glycopyrrolate] = -0.2
O=C1c2ccccc2S(=O)(=O)N1CCCCN1CCN(c2ncccn2)CC1 = 1.74
COc1ccc2ccc(=O)oc2c1CC=C(C)C = 3.87
O=C1c2c(O)cc(O)cc2O[C@H](c2ccc(O)c(O)c2)[C@H]1O = 0.83
CC/C=C\C/C=C\C/C=C\C/C=C\C/C=C\C/C=C\CCC(=O)OCC = 0.72
N#C[C@@H]1C[C@@H]2C[C@@H]2N1C(=O)[C@@H](N)C12CC3CC(CC(O)(C3)C1)C2 = 0.34
CNc1ncnc2c1ncn2[C@@H]1O[C@H](CO)[C@@H](O)[C@H]1O = 0.63
N[C@@H](C[C@@H](F)C(=O)O)C(=O)O = -2.92
COC(=O)Nc1ccc(-c2nc(N3CCOCC3)c3cnn(C4CCN(C(=O)OC)CC4)c3n2)cc1 = 0.99
CN1CCc2cc(Cl)c(O)cc2[C@@H](c2ccccc2)C1 = 2.11
CN(C)c1nc(N)c(C(=O)Nc2cccnc2)nc1Cl = 4.15
c1ccc(OCc2ccc(CCCN3CCOCC3)cc2)cc1 = -0.27
CN(CCOc1ccc(C[C@H](Nc2ccccc2C(=O)c2ccccc2)C(=O)O)cc1)c1ccccn1 = 0.58
N=C(N)SCCc1c[nH]cn1 = -2.2
Cc1cc(C(=O)Nc2cc(Oc3ccc4nc(NC(=O)C5CC5)cn4n3)ccc2C)n(C)n1 = -7.63
CC#CC(=O)N1CC[C@@H](n2c(=O)n(-c3ccc(Oc4ccccc4)cc3)c3c(N)ncnc32)C1 = -8.09
C=CC(=O)Nc1cccc(Nc2nc(Nc3ccc(Oc4ccnc(C(=O)NC)c4)cc3)ncc2F)c1 = -1.84

====

Tested on: Vero E6 infected with SARS-CoV-2
Assay: inhibition of SARS-CoV-2 cytopathic effect; higher = more antiviral protection, active = above 15
Settings: 10000 nM; 48 h
inhibition of SARS-CoV-2 cytopathic effect values, listed per item
property: inhibition of SARS-CoV-2 cytopathic effect (%)

Cc1nc(C)c(Cl)c(O)c1Cl = 1.78
Cc1cc(Nc2cc(CN3CCOCC3)c3nc(C)c(Cc4ccc(Cl)cc4F)n3n2)n[nH]1 = -11.6
COc1cc(OC)cc(C(=O)NNC(=O)Nc2cccc3ccccc23)c1 = -1.92
COc1cc(C)nc(-n2nc(C)cc2OC)n1 [epirizole] = -2.64
O=[N+]([O-])c1cc(O)c(O)c([N+](=O)[O-])c1 = -3.2
O=C1NC(=O)[C@@]2(CCOc3ccc(F)cc32)N1 = -0.07
CC(N)CCCC(C)(C)O (stereo unspecified) = 0.76
C(#CCN1CCCC1)CN1CCCC1 = -1.73
CN1CC[C@@H](NC(=O)Nc2ccc(C#N)cc2)C[C@@H]1c1nc2ccccc2[nH]1 = 1.71
CC1CS(=O)(=O)CCN1/N=C/c1ccc([N+](=O)[O-])o1 (stereo unspecified) = 1.23
CCOC(=O)N1CSC[C@H]1C(=O)O = -0.12
